# Test system: tobacco budworm (Heliothis virescens [Fabricius])
# Experimental details: surface-treated diet test against the tobacco budworm
# Assay type: in vivo
# Details: tobacco budworm second instar larvae; surface-treated diet; 0.25 millimoles of candidate insecticide on the surface of the diet; five-day exposure; compared to total number of insects infested
Percent Mortality values, listed per item

{"columns": ["Compound", "Unit name", "Percent Mortality"],
 "data": [
  ["O=C(Nc1cccc(Br)c1)OC(c1ccc(C(F)(F)F)cc1)C1CCN(Cc2ccc(Oc3ccccn3)cc2)CC1 (stereo not shown) [Compound 672]", "%", 100],
  ["CON=Cc1ccc(CN2CCC(C(OC(=O)Nc3ccc(F)c(F)c3)c3ccc(OC(F)(F)F)cc3)CC2)cc1 (stereo not shown) [Compound 194]", "%", 100],
  ["CCON=Cc1ccc(CN2CCC(C(OC(=O)Nc3ccc(Cl)c(Cl)c3)c3ccc(C(F)(F)F)cc3)CC2)cc1 (stereo not shown) [Compound 189]", "%", 100],
  ["O=C(Nc1cc(F)cc(F)c1)OC(c1cccc(C(F)(F)F)c1)C1CCN(Cc2ccc(Oc3ccccn3)cc2)CC1 (stereo not shown) [Compound 654]", "%", 100]
]}
